TARGET ENTITY: NL20 human bronchial epithelial cells expressing human Z-AAT (Homo sapiens, UniProt P01009, E366K)
Construct: doxycycline added with compounds)
Sequence (P01009 25-418 E366K): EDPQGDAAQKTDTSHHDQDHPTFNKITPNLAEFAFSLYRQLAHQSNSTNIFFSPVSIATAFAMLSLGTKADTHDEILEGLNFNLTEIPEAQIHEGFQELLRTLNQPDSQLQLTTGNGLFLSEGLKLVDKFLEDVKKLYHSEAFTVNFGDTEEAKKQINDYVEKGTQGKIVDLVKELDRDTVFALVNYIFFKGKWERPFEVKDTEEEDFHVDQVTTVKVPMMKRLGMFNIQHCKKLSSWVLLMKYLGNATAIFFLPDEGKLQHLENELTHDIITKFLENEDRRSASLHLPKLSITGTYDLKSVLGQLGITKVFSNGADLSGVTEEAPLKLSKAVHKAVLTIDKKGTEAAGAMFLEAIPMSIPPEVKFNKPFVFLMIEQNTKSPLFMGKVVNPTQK
PROCEDURE TEXT: AAT Function Assay (MSD Assay NL20-SI Cell Line)
REPORTED CONDITIONS: read-out: NL20 Functional EC50
pEC50: −log10 of the molar value.
VALUE TYPE: pEC50

### Prompt Value lookup for pEC50; key = COCC(C)(C)c1c(-c2cc(C)c(C(=O)O)cc2F)c2c(O)cc(F)cc2n1-c1ccc(F)c(OC)c1
### Response > 6.30

### Prompt pEC50 for Cc1cc(-n2c(C3CCOCC3)c(-c3cccc(C(=O)O)c3)c3cc(F)ccc32)ccc1F ?
### Response 5.70 to 6.30

### Prompt Recorded pEC50 for COCC1(c2c(-c3ccc(C(=O)O)cc3)c3c(O)cc(F)cc3n2-c2ccc(F)c(C)c2)CCC1 , please?
### Response > 6.30

### Prompt Would you mind telling me what pEC50 value was observed for COc1ccc(-c2c(C3CCOCC3)n(-c3ccc(F)cc3)c3cccc(O)c23)cc1C(=O)O ?
### Response < 5.70

### Prompt Sample Cc1cc(-n2c(C(C)(C)CC#N)c(-c3ccc(C(=O)O)s3)c3c(O)c(F)c(F)cc32)ccc1F — what was its pEC50?
### Response > 6.30

### Prompt Look at this compound and give its reported pEC50. COCC(C)(C)c1c(-c2ccc3cc(C(=O)O)oc3c2)c2c(O)cc(F)cc2n1-c1ccc(F)c(OC)c1
### Response 5.70 to 6.30

### Prompt Entry CNC(=O)C(C)(C)c1c(-c2ccc(C(=O)O)cc2)c2c(O)cccc2n1-c1ccc(F)cc1 has what pEC50?
### Response < 5.70

### Prompt Would you kindly share the measured pEC50 for O=C(O)c1cc(-c2c(C3CCOCC3)n(-c3ccc(F)cc3)c3cccc(O)c23)ccc1C(F)(F)F ?
### Response < 5.70

### Prompt Reported pEC50, compound Cc1cc(-n2c(C3CCOCC3)c(-c3ccc(C(=O)O)c(O)c3)c3c(O)cccc32)ccc1F : ____
### Response > 6.30

###

Please provide measured IC50 for the entries that follow.
TARGET ENTITY: purified Z-AAT protein (Homo sapiens, UniProt P01009, E366K)
Construct: Purified Z-AAT protein from human plasma
Sequence (P01009 25-418 E366K): as above
PROCEDURE TEXT: Biochemical Assay (Z-AAT Elastase Activity Assay)
REPORTED CONDITIONS: purified Z-AAT pre-incubated with compound 1 hour, then hNE; N.D. = activity not detected up to 30 μM

### Prompt Which IC50 is reported for this molecule? CC(C)(COC(F)F)c1c(-c2ccc(C(=O)O)cc2)c2c(O)cc(F)cc2n1-c1ccc(F)cc1
### Response < 2 µM

### Prompt Request the reported IC50 associated with COCC(C)(C)c1c(-c2ccc(C(=O)O)c(OC)c2)c2c(O)cc(F)cc2n1-c1ccc(F)c(OC)c1
### Response > 5 µM

### Prompt What does the record list as IC50 for COCC1(c2c(-c3ccc(C(=O)O)c(OC)c3)c3c(O)c(F)ccc3n2-c2ccc(F)c(OC)c2)CCC1 ?
### Response > 30 µM

### Prompt Field request: IC50 | item: O=C(O)c1ccc(-c2c3c(O)cccc3n(-c3ccc(F)cc3)c2[C@H]2CC[C@H](O)CC2)cc1
### Response > 5 µM

### Prompt Form field: reported IC50 of COCC1(c2c(-c3cnc(C(=O)O)c(Cl)c3)c3c(O)cc(Cl)cc3n2-c2ccc(F)c(OC)c2)CCC1
### Response > 30 µM

### Prompt Would you mind telling me what IC50 value was observed for COCC(C)(C)c1c(-c2ccc(C(=O)O)c(F)c2)c2c(O)cc(F)cc2n1-c1ccc(F)cc1 ?
### Response < 2 µM

### Prompt Would you kindly share the measured IC50 for COc1cc(-n2c(C3CCOCC3)c(-c3ccc(C(=O)O)c(O)c3)c3c(O)cc(Cl)cc32)ccc1F ?
### Response > 30 µM

### Prompt Reported IC50 for CNC(=O)OCC(C)(C)c1c(-c2ccc(C(=O)O)cc2)c2c(O)c(F)ccc2n1-c1ccc(F)c(C)c1 : what is it?
### Response 2 to 5 µM

### Prompt Quick one: IC50 of COCC(C)(C)c1c(-c2ccc(C(=O)O)o2)c2c(O)cc(Cl)cc2n1-c1ccc(F)c(C)c1 ?
### Response > 5 µM

### Prompt Consider the molecule shown here: COCC(C)(C)c1c(-c2ccc(C(=O)O)c(C)c2F)c2c(O)cc(F)cc2n1-c1ccc(F)c(OC)c1 What is its recorded IC50?
### Response > 5 µM

### Prompt Please give the measured IC50 for this molecule: CCC1(c2c(-c3ccc(C(=O)O)cc3)c3c(O)cc(F)cc3n2-c2ccc(F)c(C)c2)COC1
### Response < 2 µM

### Prompt Returns the measured IC50 for the input molecule. Input: Cc1cc(-n2c(C3CCOCC3)c(-c3ccc(C(=O)O)cc3F)c3c(O)cc(F)cc32)ccc1F
### Response 2 to 5 µM

### Prompt GET /values?readout=IC50&item= Cc1cc(-n2c(C3CCOCC3)c(-c3ccc(C(=O)O)c(O)c3)c3c(O)cccc32)ccc1F
### Response 2 to 5 µM

### Prompt Would you mind telling me what IC50 value was observed for N#Cc1ccc2c(c1O)c(-c1ccc(C(=O)O)cc1)c(C1CCOCC1)n2-c1ccc(F)cc1 ?
### Response > 30 µM

### Prompt Request the reported IC50 associated with Cc1cc(-n2c(C3CCOCC3)c(C3CC(C(=O)O)C3)c3c(O)cccc32)ccc1F (stereo not shown)
### Response > 30 µM

### Prompt May I ask what IC50 has been recorded for O=C(O)c1ccc(-c2c(C3CCOCC3)n(-c3ccc(F)cc3)c3ccc(Cl)c(O)c23)cc1 ?
### Response > 5 µM

### Prompt Need IC50, item COCC(C)(C)c1c(-c2ccc(C(=O)O)cc2)c2c(O)c(F)ccc2n1Cc1ccccc1F
### Response > 30 µM

### Prompt IC50 for CCC(C)(COC)c1c(-c2ccc(C(=O)O)cc2)c2c(O)cc(F)cc2n1-c1ccc(F)c(C)c1 (stereo not shown) ?
### Response < 2 µM

### Prompt Entry Cc1cc(-n2c(C3CCOCC3)c(CCC(=O)O)c3cc(F)ccc32)ccc1F has what IC50?
### Response > 30 µM

### Prompt I'd like to know its IC50. The molecule in question is CC(C)(CC#N)c1c(-c2ccc(C(=O)O)cc2F)c2c(O)cc(Cl)cc2n1-c1ccc(F)c(F)c1
### Response < 2 µM

### Prompt Consider the molecule shown here: COCC(C)(C)c1c(-c2ccc(C(=O)O)s2)c2c(O)cc(F)cc2n1-c1ccc(F)c(F)c1 What is its recorded IC50?
### Response < 2 µM

### Prompt Please look up its IC50: Cc1cc(-n2c(C3CCOCC3)c(C3CC4(CC(C(=O)O)C4)C3)c3cc(F)ccc32)ccc1F (single isomer, unassigned) [Compound W17]
### Response > 5 µM

###

TARGET ENTITY: purified Z-AAT protein (Homo sapiens, UniProt P01009, E366K)
Construct: Purified Z-AAT protein from human plasma
PROCEDURE TEXT: Biochemical Assay (Z-AAT Elastase Activity Assay)
REPORTED CONDITIONS: purified Z-AAT pre-incubated with compound 1 hour, then hNE; N.D. = activity not detected up to 30 μM
pIC50: −log10 of the molar value.
VALUE TYPE: pIC50

### Prompt Form: Entry = CC(C)(CO)c1c(-c2ccc(C(=O)O)cc2)c2c(O)c(F)ccc2n1C1CCC(F)(F)CC1 [Compound 420] | System = purified Z-AAT protein (Homo sapiens, UniProt P01009, E366K) | pIC50 = ____
### Response < 4.52

### Prompt Param readout= pIC50; system= purified Z-AAT protein (Homo sapiens, UniProt P01009, E366K); entry= COCC(C)(C)c1c(-c2ccc(C(=O)O)cc2)c2c(O)ccc(F)c2n1-c1ccc(F)cc1 [Compound 216] ; returns value.
### Response < 5.30

### Prompt Please state recorded pIC50 (tested on purified Z-AAT protein (Homo sapiens, UniProt P01009, E366K)) of COCC1(c2c(-c3ccc(C(=O)O)c(OC)c3)c3c(O)cc(F)cc3n2-c2ccc(F)c(OC)c2)CCCC1 [Compound 526]
### Response < 5.30

### Prompt Lookup: pIC50 / purified Z-AAT protein (Homo sapiens, UniProt P01009, E366K) / COCC(C)c1c(-c2ccc(C(=O)O)cc2)c2c(O)cc(F)cc2n1-c1ccc(F)c(F)c1 (racemic) [Compound 170]
### Response > 5.70

###

Kindly supply the reported EC50 values for the records listed here.
TARGET ENTITY: NL20 human bronchial epithelial cells expressing human Z-AAT (Homo sapiens, UniProt P01009, E366K)
Construct: doxycycline added with compounds)
PROCEDURE TEXT: AAT Function Assay (MSD Assay NL20-SI Cell Line)
REPORTED CONDITIONS: read-out: NL20 Functional EC50

### Prompt Quick one: EC50 for CC1(C(=O)O)CC(c2c(C(F)(F)F)n(-c3ccc(F)cc3)c3cccc(O)c23)C1 (stereo not drawn) ?
### Response > 2000 nM

### Prompt What value of EC50 has been reported for the following compound? O=C(O)c1ccc(-c2c(C3CCOCC3)n(-c3ccc(F)c(F)c3)c3cccc(O)c23)c(F)c1
### Response < 500 nM

### Prompt For the compound shown here, C[C@]1(O)C[C@H](c2c(-c3ccc(C(=O)O)cc3)c3c(O)cccc3n2-c2ccc(F)cc2)C1 , give the reported EC50.
### Response > 2000 nM

### Prompt Using the record for COCC1(c2c(-c3cccc(C(=O)O)c3)c3c(O)cc(F)cc3n2-c2ccc(F)c(OC)c2)CCC1 , report its EC50.
### Response < 500 nM

### Prompt EC50 lookup needed for O=C(O)c1ccc(-c2c(C3CCOCC3)n(-c3ccc(F)cc3)c3cc(C(F)(F)F)cc(O)c23)cc1 , thanks.
### Response 500 to 2000 nM

### Prompt What EC50 value was documented for this compound, CC(C)(COC(F)F)c1c(-c2ccc(C(=O)O)cc2)c2c(O)cc(F)cc2n1-c1ccc(F)c(F)c1 ?
### Response < 500 nM

### Prompt Data request, read-out EC50, for Cc1cc(-n2c(C3CCOCC3)c(-c3ccc(C(=O)O)c(F)c3)c3c(O)c(F)ccc32)ccc1F
### Response < 500 nM

### Prompt Which EC50 value belongs to Cc1cc(-n2c(C(C)C)c(C3CCCC(CC(=O)O)C3)c3c(O)cccc32)ccc1F (racemic) ?
### Response 500 to 2000 nM

### Prompt Please look up its EC50: O=C(O)c1ccc(-c2c(C3CCOCC3)n(-c3ccc(F)cc3)c3cccc(O)c23)cc1
### Response < 500 nM

This collection of values is drawn from patent US20230159502A1.
